Experiment: collision cross section of modified peptide (TIMS, N2, iRT-aligned); higher = larger / more extended gas-phase ion
Settings: charge state: 3; modification: GlyGly (K)
Threshold rule: collision cross section greater than or equal to 500 Å² is criterion met; below that, criterion not met.

| polymer sequence | category |
| --- | --- |
| AAINQKLIETGER [_AAINQK(GlyGly (K))LIETGER_] | criterion not met |
| TLDEILQEKK [_TLDEILQEK(GlyGly (K))K_] | criterion not met |
| LFVGGIKEDTEEHHLR [_LFVGGIK(GlyGly (K))EDTEEHHLR_] | criterion met |
| LGSPSGKTGTCR [_LGSPSGK(GlyGly (K))TGTCR_] | criterion not met |

* * *

Experiment: collision cross section of modified peptide (TIMS, N2, iRT-aligned); higher = larger / more extended gas-phase ion
Details: charge state: 2; modification: Malonyl
Threshold rule: collision cross section greater than or equal to 400 Å² is Y; below that, N.

| polymer sequence | category |
| --- | --- |
| TGGTQTDLFTCGKCK [_TGGTQTDLFTCGK(Malonyl)CK_] | Y |
| LAEEENKAK [_LAEEENK(Malonyl)AK_] | N |
| TVSKVDDFLANEAK [_TVSK(Malonyl)VDDFLANEAK_] | Y |
| GEVGAGAGPGAQAGPSAKR [_GEVGAGAGPGAQAGPSAK(Malonyl)R_] | Y |
| FLQEFYQDDELGKK [_FLQEFYQDDELGK(Malonyl)K_] | Y |
| PASGAGAGAGAGKR [_PASGAGAGAGAGK(Malonyl)R_] | N |
| ASEALLKQLK [_ASEALLK(Malonyl)QLK_] | N |
| DAEAAEATAEGALKAEK [_DAEAAEATAEGALK(Malonyl)AEK_] | Y |
| ITGKNQVTATK [_ITGK(Malonyl)NQVTATK_] | N |
| LGVATVAKGVCGACK [_LGVATVAK(Malonyl)GVCGACK_] | Y |
| SLGEPAAGEGSAKR [_SLGEPAAGEGSAK(Malonyl)R_] | N |
| GEVQVSDKER [_GEVQVSDK(Malonyl)ER_] | N |
| AAQASDLEKIHLDEK [_AAQASDLEK(Malonyl)IHLDEK_] | Y |
| GTVPDDAVEALADSLGKK [_GTVPDDAVEALADSLGK(Malonyl)K_] | Y |
| GSLGAQKLANTCFNEIEK [_GSLGAQK(Malonyl)LANTCFNEIEK_] | Y |
| DYSSGFGGKYGVQADR [_DYSSGFGGK(Malonyl)YGVQADR_] | Y |

* * *

Experiment: collision cross section of modified peptide (TIMS, N2, iRT-aligned); higher = larger / more extended gas-phase ion
Settings: charge state: 2; modification: Propionyl
Threshold rule: collision cross section greater than or equal to 400 Å² is class 1; below that, class 0.

| polymer sequence | category |
| --- | --- |
| GTITVSAQELKDNR [_GTITVSAQELK(Propionyl)DNR_] | class 1 |
| GEVGAGAGPGAQAGPSAKR [_GEVGAGAGPGAQAGPSAK(Propionyl)R_] | class 1 |
| ISALQGKLSK [_ISALQGK(Propionyl)LSK_] | class 0 |
| LGNDFHTNKR [_LGNDFHTNK(Propionyl)R_] | class 0 |
| VYIASSSGSTAIKK [_VYIASSSGSTAIK(Propionyl)K_] | class 1 |
| TQAYQDQKPGTSGLR [_TQAYQDQK(Propionyl)PGTSGLR_] | class 1 |
| LEQVEKELLR [_LEQVEK(Propionyl)ELLR_] | class 0 |
| ASEALLKQLK [_ASEALLK(Propionyl)QLK_] | class 0 |
| KFGVLSDNFK [_K(Propionyl)FGVLSDNFK_] | class 0 |
| ITGKNQVTATK [_ITGK(Propionyl)NQVTATK_] | class 0 |
| LQEKVESAQSEQK [_LQEK(Propionyl)VESAQSEQK_] | class 1 |
| DYSSGFGGKYGVQADR [_DYSSGFGGK(Propionyl)YGVQADR_] | class 1 |
| LDEKENLSAK [_LDEK(Propionyl)ENLSAK_] | class 0 |
| TTEETSKPK [_TTEETSK(Propionyl)PK_] | class 0 |

* * *

Test: collision cross section of modified peptide (TIMS, N2, iRT-aligned); higher = larger / more extended gas-phase ion
Details: charge state: 3; modification: Crotonyl
Listed below: collision cross section values for each entry.
quantity name: collision cross section (Å²)

| polymer sequence | reported |
| --- | --- |
| DSSPTTNSKLSALQR [_DSSPTTNSK(Crotonyl)LSALQR_] | 499.72 |
| VFIGNLNTLVVKK [_VFIGNLNTLVVK(Crotonyl)K_] | 479.51 |
| SLGEPAAGEGSAKR [_SLGEPAAGEGSAK(Crotonyl)R_] | 487.34 |
| IQQELQTAKK [_IQQELQTAK(Crotonyl)K_] | 431.2 |
| VTLEVGKVIQQGR [_VTLEVGK(Crotonyl)VIQQGR_] | 473.48 |
| SSFAYKDQNENR [_SSFAYK(Crotonyl)DQNENR_] | 461.83 |
| ITESVAETAQTIKK [_ITESVAETAQTIK(Crotonyl)K_] | 514.18 |
| GEVGAGAGPGAQAGPSAKR [_GEVGAGAGPGAQAGPSAK(Crotonyl)R_] | 497.45 |
| ANEKTESSSAQQVAVSR [_ANEK(Crotonyl)TESSSAQQVAVSR_] | 536.98 |
| DFDTALKHYDK [_DFDTALK(Crotonyl)HYDK_] | 466.35 |
| AAQASDLEKIHLDEK [_AAQASDLEK(Crotonyl)IHLDEK_] | 499.02 |

* * *

Assay: collision cross section of modified peptide (TIMS, N2, iRT-aligned); higher = larger / more extended gas-phase ion
Conditions: charge state: 2; modification: Butyryl
quantity name: collision cross section (Å²)

| polymer sequence | reported |
| --- | --- |
| HELQANCYEEVKDR [_HELQANCYEEVK(Butyryl)DR_] | 452.47 |
| IGNSYFKEEK [_IGNSYFK(Butyryl)EEK_] | 377.97 |
| ITLSKHQNVQLPR [_ITLSK(Butyryl)HQNVQLPR_] | 443.37 |
| TGGTQTDLFTCGKCK [_TGGTQTDLFTCGK(Butyryl)CK_] | 444.65 |
| ATVASSTQKFQDLGVK [_ATVASSTQK(Butyryl)FQDLGVK_] | 453.04 |
| GTITVSAQELKDNR [_GTITVSAQELK(Butyryl)DNR_] | 422.6 |

* * *

Experiment: collision cross section of modified peptide (TIMS, N2, iRT-aligned); higher = larger / more extended gas-phase ion
Conditions: charge state: 2; modification: Crotonyl
Threshold rule: collision cross section greater than or equal to 400 Å² is met; below that, not met.

| polymer sequence | category |
| --- | --- |
| IVSGKDYNVTANSK [_IVSGK(Crotonyl)DYNVTANSK_] | met |
| LGNDFHTNKR [_LGNDFHTNK(Crotonyl)R_] | not met |
| IQTKAGEATVK [_IQTK(Crotonyl)AGEATVK_] | not met |
| VDIDVPDVNIEGPDAKLK [_VDIDVPDVNIEGPDAK(Crotonyl)LK_] | met |

* * *

Assay: collision cross section of unmodified peptide (TIMS, N2, iRT-aligned); higher = larger / more extended gas-phase ion
Settings: charge state: 2
quantity name: collision cross section (Å²)

| substance | reported |
| --- | --- |
| DSSPTTNSKLSALQR | 418.1 |
| GAEKTEVAEPR | 369.12 |
| VGYPGPSGPLGAR | 357.93 |
| VILENIASHEPR | 417.03 |
| IPPTYQIR | 332.62 |
| YADLTEDQLPSCESLK | 447.81 |
| IFDSEEILAGYK | 391.02 |
| SKLLFSNTAAQK | 393.75 |
| GDQGEPGPSGNPGK | 342.01 |
| GNDISSGTVLSDYVGSGPPK | 464.77 |
| YRGDYDR | 327.87 |
| ALLQAKASGK | 343.27 |
| GDKGDAGEPGR | 331.44 |
| GDRGEIGPPGPR | 366.43 |
| PGPVGPPGSGGLK | 353.19 |
| DHSKPISNPSDNK | 390.86 |
| PGGLGSSSLYGLGASRPR | 472.2 |
| GRGAAAAGGPQR | 344.37 |
| GATVTRGVPPPPTVR | 421.15 |
| PGSPGPPGSPGPR | 347.56 |
| VDIDVPDVNIEGPDAKLK | 470.4 |
| LGILPVGRGK | 351.11 |
| LEKTIDDLEEK | 403.94 |
| YSTSGSSGLTTGK | 373.3 |
| LTEKELAEAASK | 387.7 |
| YEITEQR | 326.96 |
| IHVQSSSDSSDEPAEKR | 455.51 |
| ANEKTESSSAQQVAVSR | 440.94 |
| SGATAGAAGGRGK | 361.16 |
| DTGEKLTVAENEAETK | 436.86 |
| DSLGVSFPEELACK | 418.18 |
| SYGIPYIETSAK | 384.66 |
| LLALSGPGGGRGR | 381.45 |
| ITESVAETAQTIK | 394.65 |
| LYAVHQEGNK | 357.2 |
| GPPPSYGGSSR | 337.81 |
| LVFDEYLK | 354.45 |
| LQEKVESAQSEQK | 416.22 |
| GYDVIAQAQSGTGK | 388.46 |
| SHLRHAIPSAER | 388.74 |
| LEENHYNTYISK | 419.55 |
| DLATVYVDVLK | 382.78 |
| LSTPPPLAEEEGLASR | 436.07 |
| ASTPGAAAQIQEVK | 395.93 |
| LGPPGNPGPSGSPGPK | 383.56 |
| VGEFSGANKEK | 374.9 |
| YIDNQVVSTKGER | 414.64 |
| LFVGGIKEDTEEHHLR | 486.85 |
| LDHLAEKFR | 365.36 |
| VMVAPISGSVTTGTK | 396.94 |
| IEDEQALGSQLQK | 401.79 |
| AQVLAGGRGK | 345.66 |
| LGDVYVNDAFGTAHR | 434.69 |
| YTQVGPDHNR | 354.55 |
| GFPGIQGRK | 338.49 |
| ITGKNQVTATK | 365.6 |
| AYGELPEHAK | 366.13 |
| HLRGHGPQPPLR | 396.64 |
| GLQGPPGK | 292.79 |
| STNVTVAAARGIK | 399.07 |
| VLDSGAPIKIPVGPETLGR | 485.73 |
| GRGTSQLAEGATAK | 389.78 |
| VYSGHQGR | 325.3 |
| FDDTNPEKEEAK | 396.22 |
| GETASKLQSEISR | 404.79 |
| RFGGPVHHQAQR | 386.03 |
| GRGAPPPPPSR | 341.09 |
| HGVYNPNK | 330.7 |
| ASAISIKLGSSK | 373.11 |
| EVVKPVPITSPAVSK | 412.92 |
| DYILEGEPGK | 348.93 |
| DYSSGFGGKYGVQADR | 432 |
| DLTTAGAVTQCYR | 396.98 |
| SDDESSQKDIK | 372.47 |
| GLPGLAGDHGEFGEK | 432.07 |
| TVSKVDDFLANEAK | 420.02 |
| SFEDIHQYR | 359.99 |
| PRLPATGTFK | 354.31 |
| GKLGVPGLPGYPGR | 385.87 |
| AAINQKLIETGER | 409.65 |
| TYVQDILR | 349.04 |
